# weight increase (water adsorption / moisture absorption) annotations
Assay Notes: Water adsorption measurement (DVS-1 water adsorption apparatus), index of hygroscopicity
Type: physicochemical
Condition Summary: relative humidity changed within 0% to 95%; amount of change based on the weight at relative humidity 0%
Measured Endpoint: weight increase (water adsorption / moisture absorption)

# Compound, Result
data = [
    ("CNC(=O)Cn1c(=O)n(C2CCN([C@@H]3Cc4cccc5cccc3c45)CC2)c2ccccc21 [Example 1]", "0.2%"),
    ("CNC(=O)Cn1c(=O)n(C2CCN([C@@H]3Cc4cccc5cccc3c45)CC2)c2ccccc21 [Example 2]", "0.2%"),
    ("CNC(=O)Cn1c(=O)n(C2CCN([C@@H]3Cc4cccc5cccc3c45)CC2)c2ccccc21 [Example 6]", "0.4%"),
    ("CNC(=O)Cn1c(=O)n(C2CCN([C@@H]3Cc4cccc5cccc3c45)CC2)c2ccccc21 [Example 10]", "1.3%"),
    ("CNC(=O)Cn1c(=O)n(C2CCN([C@@H]3Cc4cccc5cccc3c45)CC2)c2ccccc21 [Example 8]", "2.0%"),
]

Data origin, for the record: patent US8471032B2
